- Test system: Helicoverpa armigera
- procedure.text: Insecticidal activity against Helicoverpa armigera fed on artificial diet containing compound assessed as mortality at 31.25 ug/ml after 96 hr
- Assay type: functional
assay.metric: mortality at 31.25 µg/mL
Don't forget the unit after the value.

Solved cases below.
Cc1cc(Cl)ccc1NC(=O)c1ccccc1OCc1ccc(Cl)nc1 = 0%
O=C(c1ccccc1OCc1ccc(Cl)nc1)N1CCOCC1 = 0%
O=C(Nc1cc(Cl)c(OC(F)(F)C(F)F)c(Cl)c1)c1ccccc1OCc1ccc(Cl)nc1 = 0%
O=C(Nc1ccc(I)cc1)c1ccccc1OCc1ccc(Cl)nc1 = 0%
O=C(Nc1ccc(Br)cc1)c1ccccc1OCc1ccc(Cl)nc1 = 61%

For every record below, what is its mortality at 31.25 µg/mL?
1. Cc1ccccc1NC(=O)c1ccccc1OCc1ccc(Cl)nc1
2. O=C(NC1CCCCC1)c1ccccc1OCc1ccc(Cl)nc1
3. N#CCN(C(=O)c1ccccc1OCc1ccc(Cl)nc1)c1ccccc1
4. CC(C)c1ccc(NC(=O)c2ccccc2OCc2ccc(Cl)nc2)cc1
5. O=C(Nc1ccccc1)c1ccccc1OCc1ccc(Cl)nc1

Reply:
["0%", "0%", "0%", "41%", "0%"]

Origin of values: ChEMBL document CHEMBL3045290
